What MIC was measured for each of the following?
# Test system: Magnusiomyces capitatus
# test.summary: Antimicrobial activity against Blastoschizomyces capitatus by microdilution method
# Assay type: functional
Numbered stars: 1 amine (or outer) side, 2 acyl side, 3 side chain; on linkers, the order of the positions; unused ones are H or OH. Bridge positions count the residues as written; N and C are the ends. Square brackets hold non-standard residues; d marks the D form. Peptide text beside a SMILES is read from it. * marks the point of attachment. pTerphenylCO(4''-OnC5H11) = CCCCCOc1ccc(-c2ccc(-c3ccc(C(=O)*)cc3)cc2)cc1; Orn(4R-OH,5R-OH) = O=C([C@H](C[C@@H](O)[C@@H](O)N[*:3])N[*:1])[*:2]; hTyr(3S-OH,4S-OH) = N[C@H](C(=O)O)[C@H](O)[C@@H](O)c1ccc(O)cc1; Pro(3S-OH,4S-Me) = C[C@H]1CN[C@H](C(=O)O)[C@H]1O; Hyp = O=C(O)[C@@H]1C[C@@H](O)CN1
One number for each entry, in µg/mL.

// below: answered compounds
compound | measure.unit | MIC
CCCCCOc1ccc(-c2ccc(-c3ccc(C(=O)N[C@H]4C[C@@H](O)[C@@H](O)NC(=O)[C@@H]5[C@@H](O)[C@@H](C)CN5C(=O)[C@H]([C@@H](C)O)NC(=O)[C@H]([C@H](O)[C@@H](O)c5ccc(O)cc5)NC(=O)[C@@H]5C[C@@H](O)CN5C(=O)[C@H]([C@@H](C)O)NC4=O)cc3)cc2)cc1 [ANIDULAFUNGIN] ({pTerphenylCO(4''-OnC5H11)}-[Orn(4R-OH,5R-OH)]T[Hyp][hTyr(3S-OH,4S-OH)]T[Pro(3S-OH,4S-Me)]; lactam 1-C) | µg/mL | 0.5
CC[C@H](C)C[C@H](C)CCCCCCCCC(=O)N[C@H]1C[C@@H](O)[C@@H](NCCN)NC(=O)[C@@H]2[C@@H](O)CCN2C(=O)[C@H]([C@H](O)CCN)NC(=O)[C@H]([C@H](O)[C@@H](O)c2ccc(O)cc2)NC(=O)[C@@H]2C[C@@H](O)CN2C(=O)[C@H]([C@@H](C)O)NC1=O | µg/mL | 8

With those in mind, consider the next compound.
Query MIC for C[C@@H](c1ncncc1F)[C@](O)(Cn1cncn1)c1ccc(F)cc1F 0.06
